- experimental.system: c-Src SH2
- assay.info: SH2 binding enrichment of the phosphorylated peptide, bacterial display (enrichment ratio); higher = better substrate or ligand; peptides without Tyr show the background
Provide the recorded SH2 binding enrichment for the entries that follow.
Answers are plain numbers.

Some solved cases for reference:
FSNKLYFQLEQ [PDPR_Y109_YF] :: 0.523
TNDRLYLRSLE [MTM1_Y71_Y68D] :: 0.616

In the following, a different sequence is considered.
## Task Suppose we examine the sequence ALAHEYHGGGG [HBB_Y146_K145E] ; what SH2 binding enrichment value has been reported?
## Result 0.696

* * *

Provide the recorded phosphorylation enrichment for the entries that follow.
- Tested on: AncSZ
- assay.info: phosphorylation enrichment, bacterial display (enrichment ratio); higher = better substrate or ligand; peptides without Tyr show the background
Answers are plain numbers.

Some solved cases for reference:
CVRTIYTIDGS [DCLK2_Y124_G119C] :: 0.891
TESNNYIYKTL [FAM83B_Y637] :: 0.729
AESPEYVHMFT [FAM111A_Y511_YF] :: 1.32
PFTRNYYVWAV [CYBA_Y87_R90W] :: 1.41

For each of the items listed, what is its phosphorylation enrichment?
1. WDSSGYWTPEE [PAPPA2_Y908_C903W]
2. WQQQSYLGSGI [CTNNB1_Y30_D32G]
3. EVGHVYLFLQP [ITGA2B_Y360_R358H]
4. MPLTEYLKRIK [CNGB3_Y200]

## Result
[1.41, 0.748, 1.33, 0.621]

For each of the items listed, what is its phosphorylation enrichment?
1. PGVDIYISPNM [PADI3_Y51]
2. QEIATYRRLQE [KRT14_Y415_L419Q]

## Result
1: 1.64; 2: 0.926

* * *

- experimental.system: Fyn (UniProt P06241)
- Sequence (P06241 whole entry, looked up): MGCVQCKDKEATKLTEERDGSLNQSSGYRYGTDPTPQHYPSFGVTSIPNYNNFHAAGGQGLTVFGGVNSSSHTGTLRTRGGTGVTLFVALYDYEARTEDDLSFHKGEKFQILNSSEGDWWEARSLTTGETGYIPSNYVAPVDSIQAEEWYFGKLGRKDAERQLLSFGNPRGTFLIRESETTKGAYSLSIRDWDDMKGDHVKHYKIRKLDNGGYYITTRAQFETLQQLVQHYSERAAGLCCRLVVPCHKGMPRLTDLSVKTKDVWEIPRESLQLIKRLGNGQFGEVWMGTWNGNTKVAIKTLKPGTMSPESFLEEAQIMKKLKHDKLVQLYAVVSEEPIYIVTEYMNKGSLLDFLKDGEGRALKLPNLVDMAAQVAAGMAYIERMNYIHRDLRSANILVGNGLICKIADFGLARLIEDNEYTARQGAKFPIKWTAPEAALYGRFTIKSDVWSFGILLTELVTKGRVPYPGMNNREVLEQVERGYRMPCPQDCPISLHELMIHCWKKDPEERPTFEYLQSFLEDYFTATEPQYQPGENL
- assay.info: phosphorylation enrichment, bacterial display (enrichment ratio); higher = better substrate or ligand; peptides without Tyr show the background
quantity.measured: phosphorylation enrichment
Give bare numbers.

Some solved cases for reference:
REIHDYIKHLG [UNC13C_Y308_D304E] :: 0.821
NKEPRYQEEPP [TJP2_Y479_D482E] :: 0.507
ILTYKYLQIPM [KIT_Y547_K550I] :: 0.422
ALTRSYVREKV [CYP2C8_Y243_I244V] :: 0.387
ARLEFCENEKK [IRS1_Y47_Y47C_YF] :: 0.515

For each of the items listed, what is its phosphorylation enrichment?
1. ADRNHYRRYPR [YBX1_Y145]
2. GHNNVYISEHV [GRIN2A_Y1423_D1421N]
3. VAFLYYKSIGP [ADGRL4_Y302_V300L]

## Result
1: 0.544; 2: 0.475; 3: 0.45

* * *

- experimental.system: Jak2 (UniProt O60674)
- Sequence (O60674 whole entry, looked up): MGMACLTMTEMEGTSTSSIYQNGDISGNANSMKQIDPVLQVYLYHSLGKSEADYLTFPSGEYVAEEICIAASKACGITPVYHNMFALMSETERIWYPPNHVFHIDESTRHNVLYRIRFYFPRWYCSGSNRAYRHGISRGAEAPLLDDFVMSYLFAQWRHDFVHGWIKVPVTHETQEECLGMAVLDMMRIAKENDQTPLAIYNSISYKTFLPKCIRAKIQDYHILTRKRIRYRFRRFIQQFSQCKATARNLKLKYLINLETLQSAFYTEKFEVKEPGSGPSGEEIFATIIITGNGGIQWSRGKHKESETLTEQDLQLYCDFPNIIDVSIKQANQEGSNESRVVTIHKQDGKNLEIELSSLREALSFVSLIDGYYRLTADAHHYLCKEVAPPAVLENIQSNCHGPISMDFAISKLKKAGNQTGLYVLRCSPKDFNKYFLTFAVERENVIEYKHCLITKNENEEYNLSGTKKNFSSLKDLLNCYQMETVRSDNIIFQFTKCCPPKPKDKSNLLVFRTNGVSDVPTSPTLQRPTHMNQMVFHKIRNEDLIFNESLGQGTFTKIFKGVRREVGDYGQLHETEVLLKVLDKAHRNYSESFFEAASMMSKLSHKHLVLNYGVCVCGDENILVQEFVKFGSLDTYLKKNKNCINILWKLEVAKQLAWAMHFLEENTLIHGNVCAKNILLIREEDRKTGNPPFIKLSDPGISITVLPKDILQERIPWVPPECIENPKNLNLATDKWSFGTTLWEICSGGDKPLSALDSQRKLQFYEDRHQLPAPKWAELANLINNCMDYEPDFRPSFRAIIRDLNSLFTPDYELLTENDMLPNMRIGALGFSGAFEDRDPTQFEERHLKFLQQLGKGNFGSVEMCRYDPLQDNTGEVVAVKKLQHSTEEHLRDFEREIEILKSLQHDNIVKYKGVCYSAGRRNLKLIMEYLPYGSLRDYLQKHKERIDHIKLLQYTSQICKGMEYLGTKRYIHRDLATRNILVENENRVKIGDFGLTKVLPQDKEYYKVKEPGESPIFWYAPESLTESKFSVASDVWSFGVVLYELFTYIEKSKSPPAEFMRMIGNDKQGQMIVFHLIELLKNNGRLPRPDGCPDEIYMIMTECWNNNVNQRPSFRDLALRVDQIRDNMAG
- assay.info: phosphorylation enrichment, bacterial display (enrichment ratio); higher = better substrate or ligand; peptides without Tyr show the background
Provide the recorded phosphorylation enrichment for the entries that follow.
One number for each entry.

Some solved cases for reference:
RCNHPYLINGA [CHD7_Y1256_C1251R] :: 0.646
KSMFVYCTPNK [ATP2A2_Y497_S495F] :: 1.12
RHPFFFAPELL [ALB_Y174_Y174F_YF] :: 1.15
GTAPSYGNPSS [CD19_Y378] :: 0.594

For each of the items listed, what is its phosphorylation enrichment?
1. ALAHEYHGGGG [HBB_Y146_K145E]
2. DTKPVYQNLRQ [BOD1_Y82_A81V]
3. LGPDGYSTVDR [ARVCF_Y901]

## Result
0.599
0.621
1.01

For each of the items listed, what is its phosphorylation enrichment?
1. EEKSCYILHSS [PATJ_Y783_E780K]
2. WFKKFYDANYD [MAPRE2_Y158]
3. TLLERYGMTEI [ACSF3_Y355]

## Result
0.744
0.899
0.565

* * *

- experimental.system: Grb2 SH2 (UniProt P62993)
- Sequence (P62993 whole entry, looked up): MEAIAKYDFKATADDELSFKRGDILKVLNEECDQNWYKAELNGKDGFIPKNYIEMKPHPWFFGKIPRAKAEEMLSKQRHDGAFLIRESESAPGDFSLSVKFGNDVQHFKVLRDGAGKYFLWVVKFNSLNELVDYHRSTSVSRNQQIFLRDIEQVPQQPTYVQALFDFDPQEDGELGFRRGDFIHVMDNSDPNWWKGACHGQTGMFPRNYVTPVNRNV
- assay.info: SH2 binding enrichment of the phosphorylated peptide, bacterial display (enrichment ratio); higher = better substrate or ligand; peptides without Tyr show the background
Classification field: enter 1 (yes) for SH2 binding enrichment values not below 0.8, 0 (no) for values below it.

Before answering, review these 2 worked examples.
ARLEFCENEKK [IRS1_Y47_Y47C_YF] :: 0 (no)
TESNNYIYTTL [FAM83B_Y637_K640T] :: 0 (no)

## Task Evaluate IKAGAYDFPSL [CAMK2A_Y230_P235L] : SH2 binding enrichment at minimum 0.8?
## Result 0 (no)

## Task Try this sequence next: KTDVHYRSLGG [DYSF_Y1858]
## Result 0 (no)

## Task Try this sequence next: SLIEHYEPSET [PLCD1_Y258_R257H]
## Result 1 (yes)

## Task Try this sequence next: GREAEYSEKHG [EPHB4_Y574_D576E]
## Result 0 (no)

* * *

- Test system: Fer (mouse)
- assay.info: phosphorylation enrichment, bacterial display (enrichment ratio); higher = better substrate or ligand; peptides without Tyr show the background
Provide the recorded phosphorylation enrichment for the entries that follow.
Give bare numbers.

Some solved cases for reference:
AEVDTYCRHNY [HLA-DRB1_Y107_A103E] :: 0.442
RGRSTYYWPSP [GAGE12J_Y9_R13S] :: 0.699

For each of the items listed, what is its phosphorylation enrichment?
1. LEAFQYIGESQ [MSH2_Y856_E853A]
2. PFAEPYADFGG [APBA1_Y187_S184A_YF]
3. VGRVGYVSGWG [HP_Y280]
4. GKMPQYLESMQ [CYB5R3_Y130_S128P]
5. RAIGHYSATSK [FAM120A_Y328_Y327H]

## Result
[0.505, 0.38, 0.395, 0.304, 0.542]

For each of the items listed, what is its phosphorylation enrichment?
1. KNNSIYVVANI [VNN1_Y134]
2. KFACSYTPVKA [FLNB_Y708_T703K_YF]
3. FIGRIYLFLTK [GARS1_Y414_YF]

## Result
1. 0.727
2. 0.462
3. 0.707

For each of the items listed, what is its phosphorylation enrichment?
1. ADNSAYLMGLN [MYH7_Y386_K383N]
2. GPGLVYGVANK [FLNB_Y1833]
3. PLRAYYLIARV [HLCS_Y635_D634Y]

## Result
1: 0.497; 2: 0.51; 3: 0.732

For each of the items listed, what is its phosphorylation enrichment?
1. DAANNYARGHF [TUBA3E_Y103_S101N_YF]
2. REVKAYGAGLL [TH_Y419_G414R]
3. SVGGCYEQLFV [MC4R_Y41_D37V]
4. SGFESYGSSSS [RPA2_Y9_Y14S]
5. FKGIVYSVSSD [DCX_Y70_A71S]

## Result
1: 0.431; 2: 0.853; 3: 7.02; 4: 0.521; 5: 0.399

* * *

- experimental.system: Jak2 (UniProt O60674)
- assay.info: phosphorylation enrichment, bacterial display (enrichment ratio); higher = better substrate or ligand; peptides without Tyr show the background
Provide the recorded phosphorylation enrichment for the entries that follow.

Some solved cases for reference:
ATQDNYVLEVR [PTPRZ1_Y2179_D2178N] :: 0.821
LGGSPYPRVPV [FGFR1_Y701_G703R] :: 0.507
FIGRIYLFLTK [GARS1_Y414_YF] :: 1.38
RFVTRHIFNRE [HLA-DQB1_Y62_Y62H_YF] :: 0.766

For each of the items listed, what is its phosphorylation enrichment?
1. AESPEYVHMFT [FAM111A_Y511_YF]
2. TESNNYIYKTL [FAM83B_Y637]

## Result
1.11
0.63

For each of the items listed, what is its phosphorylation enrichment?
1. FGGLRCGFGVL [KRTAP20-2_Y13_Y13C_YF]
2. EEHIPCTHMNG [INSR_Y1361_Y1361C]
3. SHKELYKWFTS [DYNC1H1_Y3051_E3048K]
4. EVEPTYVVLFD [ERCC4_Y577_R576T_YF]
5. TFEFRYLEDRD [CNOT3_Y746_YF]

## Result
1: 0.901; 2: 1.03; 3: 0.717; 4: 1.26; 5: 1.17

For each of the items listed, what is its phosphorylation enrichment?
1. CTNPQYLAAGS [RABL3_Y185_R184Q]
2. AFPVSYSSSGA [RET_Y687]
3. GNEEAYGRSHI [FAM171B_Y522]

## Result
0.778
0.52
0.905

For each of the items listed, what is its phosphorylation enrichment?
1. GNLLIYTEFGK [HGD_Y166]
2. WASSSYRETPS [SORBS1_Y79_R74W]
3. AFSLKYEQQTQ [SYTL4_Y366]
4. PFFTSYPPSPD [GDAP2_Y491_YF]
5. ESPGLYGFLNV [BCR_Y910]

## Result
1. 1.14
2. 0.45
3. 0.982
4. 1.14
5. 0.922
